Assayed Target: GSK3alpha (Homo sapiens)
Sequence (P49840 whole entry, species assumed): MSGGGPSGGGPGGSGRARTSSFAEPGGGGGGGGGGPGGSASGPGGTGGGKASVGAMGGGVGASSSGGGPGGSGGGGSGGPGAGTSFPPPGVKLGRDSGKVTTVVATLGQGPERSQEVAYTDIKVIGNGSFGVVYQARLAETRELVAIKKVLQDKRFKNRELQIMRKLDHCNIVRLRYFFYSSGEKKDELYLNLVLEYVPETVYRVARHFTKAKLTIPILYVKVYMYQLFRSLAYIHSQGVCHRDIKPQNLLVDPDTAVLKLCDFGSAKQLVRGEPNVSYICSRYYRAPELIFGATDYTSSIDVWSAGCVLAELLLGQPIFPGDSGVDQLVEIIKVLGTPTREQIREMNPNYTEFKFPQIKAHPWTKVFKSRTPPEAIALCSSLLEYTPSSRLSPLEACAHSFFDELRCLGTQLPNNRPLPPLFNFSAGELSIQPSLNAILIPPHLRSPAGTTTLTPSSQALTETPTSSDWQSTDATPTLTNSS
Method: GSK3alpha assay (same as the GSK3beta assay, 0.25 ng/μl GSK3alpha)
Format: biochemical
Conditions: ranges of pIC50 (−log IC50 (M)), 1 μM ATP, read-out: GSK3a pIC50 (converted)
Recorded IC50 for the following compounds
Endpoint Label: IC50

[
  {
    "Compound Structure": "COc1cccc(-n2nnc3cnc(Nc4cccc(-c5nnn[nH]5)c4)nc32)c1",
    "Endpoint Label": "IC50",
    "Result": "< 1e-08 M"
  },
  {
    "Compound Structure": "COCc1cccc(-n2nnc3cnc(Nc4ccc(OCCN5CCN(C)CC5)cc4)nc32)c1",
    "Endpoint Label": "IC50",
    "Result": "1e-08 to 1e-07 M"
  },
  {
    "Compound Structure": "Brc1cccc(-n2nnc3cnc(Nc4cccc(C5=NCNC5)c4)nc32)c1",
    "Endpoint Label": "IC50",
    "Result": "< 1e-08 M"
  },
  {
    "Compound Structure": "COCc1cccc(-n2nnc3cnc(Nc4cccc(-c5cnco5)c4)nc32)c1",
    "Endpoint Label": "IC50",
    "Result": "< 1e-08 M"
  }
]

###

Assayed Target: GSK3alpha (Homo sapiens)
Method: GSK3alpha assay (same as the GSK3beta assay, 0.25 ng/μl GSK3alpha)
Assay type: biochemical
Conditions: ranges of pIC50 (−log IC50 (M)), 1 μM ATP, read-out: GSK3a pIC50 (converted)
Endpoint Label: IC50

[
  {
    "Compound Structure": "N#CCc1cccc(-n2nnc3cnc(Nc4ccc(C(=O)NCCN5CCOCC5)cc4)nc32)c1",
    "Endpoint Label": "IC50",
    "Result": "< 1e-08 M"
  },
  {
    "Compound Structure": "NCc1cccc(-n2nnc3cnc(Nc4cccc(-c5cnco5)c4)nc32)c1",
    "Endpoint Label": "IC50",
    "Result": "< 1e-08 M"
  },
  {
    "Compound Structure": "Nc1nccc(-c2cccc(Nc3ncc4nnn(-c5cccc(CNC(=O)C6CC6)c5)c4n3)c2)n1",
    "Endpoint Label": "IC50",
    "Result": "1e-08 to 1e-07 M"
  },
  {
    "Compound Structure": "Fc1cccc(-n2nnc3cnc(Nc4ccc(OCCCN5CCCCC5)cc4)nc32)c1",
    "Endpoint Label": "IC50",
    "Result": "1e-08 to 1e-07 M"
  },
  {
    "Compound Structure": "NC(=O)Cc1cccc(-n2nnc3cnc(Nc4cccc(-c5cnco5)c4)nc32)c1",
    "Endpoint Label": "IC50",
    "Result": "< 1e-08 M"
  },
  {
    "Compound Structure": "Fc1cccc(-n2nnc3cnc(Nc4ccc(-c5cnco5)cc4)nc32)c1",
    "Endpoint Label": "IC50",
    "Result": "1e-08 to 1e-07 M"
  },
  {
    "Compound Structure": "COc1cccc(-n2nnc3cnc(Nc4cccc(-c5ccnc(N)n5)c4)nc32)c1",
    "Endpoint Label": "IC50",
    "Result": "< 1e-08 M"
  },
  {
    "Compound Structure": "CC(=O)NCc1cccc(-n2nnc3cnc(Nc4cccc(-c5cnco5)c4)nc32)c1",
    "Endpoint Label": "IC50",
    "Result": "< 1e-08 M"
  },
  {
    "Compound Structure": "CN1CCN(CCOc2ccc(Nc3ncc4nnn(-c5cccc(F)c5)c4n3)cc2)CC1",
    "Endpoint Label": "IC50",
    "Result": "< 1e-08 M"
  },
  {
    "Compound Structure": "Fc1cccc(-n2nnc3cnc(Nc4cccc(-c5nnn[nH]5)c4)nc32)c1",
    "Endpoint Label": "IC50",
    "Result": "< 1e-08 M"
  },
  {
    "Compound Structure": "COCc1cccc(-n2nnc3cnc(Nc4ccc(OCCCN5CCN(C)CC5)cc4)nc32)c1",
    "Endpoint Label": "IC50",
    "Result": "< 1e-08 M"
  },
  {
    "Compound Structure": "COCc1cccc(-n2nnc3cnc(Nc4ccc(CN5CCC(O)CC5)cc4)nc32)c1",
    "Endpoint Label": "IC50",
    "Result": "1e-08 to 1e-07 M"
  },
  {
    "Compound Structure": "CN1CCN(CCCOc2ccc(Nc3ncc4nnn(-c5cccc(CC#N)c5)c4n3)cc2)CC1",
    "Endpoint Label": "IC50",
    "Result": "< 1e-08 M"
  },
  {
    "Compound Structure": "COc1cccc(-n2nnc3cnc(Nc4cccc(N5CCN(C)CC5)c4)nc32)c1",
    "Endpoint Label": "IC50",
    "Result": "1e-08 to 1e-07 M"
  }
]
